assay: NCI Yeast Anticancer Drug Screen. Data for the rad50 strain (AID 155);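 note: 0% = growth of vehicle-only cultures of the same strain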; conditions: S. cerevisiae rad50 strain growth inhibition; at 1.2 µM; stronger effect = higher value
About 79,000 compounds went through this panel and 15% of them were active in at least one assay; those are over-represented in the sample as a whole.
ASSAY METRIC: growth inhibition (%)
Give bare numbers, in %.

Batch: growth inhibition for all items listed.
1. O=[N+]([O-])C(=C(Sc1ccccc1)Sc1ccccc1)C(Cl)=C(Cl)Cl
2. O=C(c1ccc(Cl)cc1)C1OC12C(=O)Nc1ccccc12 (stereo not drawn)
3. Nc1nc(-c2cccnc2)cc(-c2cc(-c3cccnc3)nc(N)n2)n1

1. 4
2. 13
3. 0

###

assay: NCI Yeast Anticancer Drug Screen. Data for the rad14 strain (AID 159);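 note: 0% = growth of vehicle-treated control cultures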; conditions: S. cerevisiae rad14 strain growth inhibition; at 33.0 µM
About 79,000 compounds went through this panel and 15% of them were active in at least one assay; those are over-represented in the sample as a whole. The source made the active and inactive calls. Cut-off read from the data, not from the text of the source: active = growth inhibition above about 70%; inactive = the rest.
Permitted responses: TRUE (active), FALSE (inactive)

Previously resolved entries follow.
COMPOUND	CLASS ASSIGNMENT
O=C(O)CNc1ccc(Cl)c(Cl)c1	FALSE
O=C1C=CC(=O)c2c(O)c(Nc3ccc(OC(F)(F)F)cc3)c(Cl)c(O)c21	FALSE
O=C1C=CC(=C(c2ccccc2)c2ccccc2)c2ccccc21	FALSE
O=C(NCCCNCCCNC(=O)c1cc(-c2ccccc2)nc2ccccc12)c1cc(-c2ccccc2)nc2ccccc12	FALSE
COc1ccccc1N=NC(C(=O)c1ccccc1)C(=O)c1ccccc1	TRUE

Hey, what did the test say about "CCc1ccc(NS(=O)(=O)c2ccccc2)c([N+](=O)[O-])c1" ? FALSE

Now try "O=C(Nc1ccc(Cl)cc1)OCC#CCCl" . FALSE

Now try CC(Br)C(=O)c1ccc2cc(Br)c3ccccc3c2c1 (stereo unspecified) . FALSE

Now try "Cn1c2ccccc2c(=O)c2cc(NC(=O)CCCCC(=O)Nc3ccc4c(c3)c(=O)c3ccccc3n4C)ccc21" . FALSE

Now try "CCOC(=O)c1cnc2cc(C(F)(F)F)ccc2c1N=[N+]=[N-]" . FALSE

Now try "Oc1ccc2ccccc2c1C(c1ccc(Cl)cc1)c1c(O)ccc2ccccc12" . FALSE

Now try "O=CNc1ccc2c(c1)C(=O)c1ccccc1-2" . FALSE

Now try "S=C(N/N=C/c1ccccn1)Nc1ccc(Cl)cc1" . FALSE

###

Test: NCI Yeast Anticancer Drug Screen. Data for the rad52 strain (AID 147);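 note: 0% = growth of vehicle-treated control cultures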
Details: S. cerevisiae rad52 mutant growth inhibition; at 3.7 µM; stronger effect = higher value
Method: Growth inhibition of yeast strains with defined genetic alterations is measured as a screen for potential anti-cancer activity. Selected strains with alterations in DNA damage repair or cell cycle control were exposed to compounds and growth inhibition was measured relative to vehicle treated controls. The strain used in this assay is rad52
This is part of a sample that, as a whole, favours compounds with a hit. Of some 79,000 tested, about 15% had one in any assay.
Provide the recorded growth inhibition for the entries that follow.
One number for each entry, in %.

Before answering, review these 5 worked examples.
COMPOUND	ASSAY METRIC	RECORDED MEASUREMENT
Fc1ccc(NC(=S)SCc2ccc3c(c2)OCO3)cc1F	growth inhibition	9
C/C(=N\NC(=S)SCc1ccccc1)c1ccccn1	growth inhibition	13
COc1cc2c3c(cccc3c1)C(=O)N(CCN(C)C)C2=O	growth inhibition	-14
Cc1ccc2ccc(O)cc2c1	growth inhibition	-35
COc1cc(C2c3cc4c(cc3OC(Nc3ccccc3)C2C)OCO4)cc(OC)c1O (configuration not stated)	growth inhibition	2

Batch: growth inhibition for all items listed.
1. O=C1C2C(C(=O)N1c1ccc(OCc3ccccc3)cc1)C1c3ccccc3C2C2CCCCN21 (configuration not stated)
2. O=CNc1ccc2c(c1)C(=O)c1ccccc1-2

1. 1
2. 15
